Data credit: patent US20250206836A1

experimental_target: purified biotin-tagged human CD36 (human, UniProt P16671 30-439, limits assumed, biotin tag, site not stated)
Sequence (P16671 30-439 limits assumed): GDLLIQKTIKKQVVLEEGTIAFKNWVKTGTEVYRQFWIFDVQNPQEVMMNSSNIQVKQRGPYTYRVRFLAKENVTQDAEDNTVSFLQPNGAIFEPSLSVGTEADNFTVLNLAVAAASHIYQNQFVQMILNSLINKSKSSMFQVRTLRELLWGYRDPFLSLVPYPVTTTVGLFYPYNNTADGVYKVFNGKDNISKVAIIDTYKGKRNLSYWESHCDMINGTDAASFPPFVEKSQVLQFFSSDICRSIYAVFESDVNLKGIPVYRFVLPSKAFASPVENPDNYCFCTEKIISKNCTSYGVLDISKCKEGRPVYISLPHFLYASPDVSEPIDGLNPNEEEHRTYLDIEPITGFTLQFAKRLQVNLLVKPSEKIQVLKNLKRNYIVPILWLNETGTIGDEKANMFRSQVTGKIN
measurement_protocol: AlphaScreen competition; competitor 1G04 on acceptor beads;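 further: streptavidin donor beads excited at 680 nm release singlet oxygen, and the light signal needs a nearby acceptor bead, with 30 min donor-bead incubation at 25 °C in the dark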
Would you kindly list pEC50 for each of these binders?
Give bare numbers, as −log10 of the molar value.

[[record]]
binder = "12G04 (antibody, human IgG1, V domains shown, Chimeric: mouse variable regions on human IgG1 LALA (L234A/L235A); also called 012G04) VH: EVQLVESGGGLVQPGESLKLSCESNEYEFPSHDMSWVRKTPEKRLELVAAINSDGGYTYYPDTMERRFIISRDNTKKTLYLQMSSLRSEDTALYYCARHGYDYDEEGAWFAYWGQGTLVTVSA VL: ETTVTQSPASLSMAIGEKVTIRCITSTDIDDDMNWYQQKPGEPPKLLISEGNTLRPGVPSRFSSTGYGTDFVFSIENMLSEDVADYYCLQSDNLPFTFGSGTKLEIK"
parameter_measured = "pEC50"
experimental_result = 9.11


Moving on to another binder below.
QUERY: Kindly indicate its recorded pEC50. Item: 31G04 (antibody, human IgG1, V domains shown, Chimeric: mouse variable regions on human IgG1 LALA (L234A/L235A)) VH: QVQLQQSGSELRSPGSSVKLSCKDFDSEVFPIAYMSWVRQKPGHGFEWIGDILPSIGSTIYGEKFEDKATLDADTVSNTAYLELNSLTSEDSAIYYCARDYYGSSYGYFDVWGAGTTVTVPS VL: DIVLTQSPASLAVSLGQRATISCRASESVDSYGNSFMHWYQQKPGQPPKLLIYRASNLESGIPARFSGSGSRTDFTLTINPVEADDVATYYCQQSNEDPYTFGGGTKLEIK
RESULT: 9.57
